# STUDY TARGET: Sodium-dependent serotonin transporter (Homo sapiens, UniProt P31645)
# Sequence (P31645 whole entry): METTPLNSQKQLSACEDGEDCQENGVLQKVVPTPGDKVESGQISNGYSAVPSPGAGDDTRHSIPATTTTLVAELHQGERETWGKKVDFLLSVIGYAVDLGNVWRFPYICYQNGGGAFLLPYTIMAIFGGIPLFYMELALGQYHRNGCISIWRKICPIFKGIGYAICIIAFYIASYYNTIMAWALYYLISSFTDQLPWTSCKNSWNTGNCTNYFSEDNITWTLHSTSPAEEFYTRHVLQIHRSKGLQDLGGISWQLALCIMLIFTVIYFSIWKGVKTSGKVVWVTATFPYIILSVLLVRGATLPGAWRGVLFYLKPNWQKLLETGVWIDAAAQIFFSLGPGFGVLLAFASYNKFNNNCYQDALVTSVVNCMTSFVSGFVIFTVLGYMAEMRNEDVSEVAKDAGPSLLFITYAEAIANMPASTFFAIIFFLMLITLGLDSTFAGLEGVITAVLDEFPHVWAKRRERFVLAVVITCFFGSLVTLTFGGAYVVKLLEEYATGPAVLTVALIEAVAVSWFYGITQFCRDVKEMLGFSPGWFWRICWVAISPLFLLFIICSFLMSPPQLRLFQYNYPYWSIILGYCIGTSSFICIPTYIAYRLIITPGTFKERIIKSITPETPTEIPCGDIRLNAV
pIC50: −log10 of the molar value.

COMPOUND: CN1C2CCC1[C@@H](COC(=O)CC[S+]1CC[S+](C)[Re]1([Br])([CH]=O)([CH]=O)[CH]=O)[C@@H](c1ccc(F)cc1)C2 (stereo partly specified)
STUDY TARGET: Sodium-dependent serotonin transporter (Homo sapiens, UniProt P31645)
pIC50: 7.14

###

# STUDY TARGET: Sodium-dependent dopamine transporter (Homo sapiens)
# Sequence (Q01959 whole entry): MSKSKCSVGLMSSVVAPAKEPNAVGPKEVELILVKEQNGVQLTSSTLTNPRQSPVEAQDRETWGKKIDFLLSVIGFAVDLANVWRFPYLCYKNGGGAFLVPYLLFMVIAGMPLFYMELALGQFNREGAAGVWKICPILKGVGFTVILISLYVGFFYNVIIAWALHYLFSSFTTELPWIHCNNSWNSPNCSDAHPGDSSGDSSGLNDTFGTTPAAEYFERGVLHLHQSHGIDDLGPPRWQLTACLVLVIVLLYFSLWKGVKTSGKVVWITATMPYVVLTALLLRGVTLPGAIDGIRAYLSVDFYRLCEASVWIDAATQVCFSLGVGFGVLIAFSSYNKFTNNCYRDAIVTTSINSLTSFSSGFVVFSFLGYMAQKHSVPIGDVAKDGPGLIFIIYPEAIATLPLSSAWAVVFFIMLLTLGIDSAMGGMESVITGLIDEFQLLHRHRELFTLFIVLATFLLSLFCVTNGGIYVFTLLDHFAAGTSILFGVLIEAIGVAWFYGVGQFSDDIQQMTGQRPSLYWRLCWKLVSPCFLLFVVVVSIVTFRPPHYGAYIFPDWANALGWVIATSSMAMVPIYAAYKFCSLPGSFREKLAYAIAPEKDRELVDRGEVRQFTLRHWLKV
# TEST DESCRIPTION: The compound was tested in vitro for low binding affinity for the Dopamine transporter (DAT) using competitive binding assay.

MOLECULE: CN1C2CCC1[C@@H](COC(=O)CC[S+]1CC[S+](C)[Re]1([Br])([CH]=O)([CH]=O)[CH]=O)[C@@H](c1ccc(F)cc1)C2 (stereo partly specified)
IC50 (µM): 0.02
